assay: BSK_SAg_SRB: Viability Assessment in the BioMAP Diversity Plus: SAg Assay (AID 2283096); settings: primary human HUVEC with PBMC;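 further: cells read one day after compound addition; hits may be either gain or loss of signal compared with DMSO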
Calls of active or inactive are those of the source. How the source made its calls: active means hit-call score of the fitted dose curve at least 0.9, where 1 is the maximum; inactive means score below 0.9.
Reply using exactly one outcome from class 1 (active), class 0 (inactive)

Here are 5 compounds together with their reported answers.
-- ask Outcome? CCC(C)OC(=O)N1CCCCC1CCO (stereo not drawn)
-- reply class 0

-- ask Then CCCOC(=O)c1ccc(C(=O)OCCC)nc1 ?
-- reply class 0

-- ask Then CCN(Cc1c(F)cccc1Cl)c1c([N+](=O)[O-])cc(C(F)(F)F)cc1[N+](=O)[O-] ?
-- reply class 1

-- ask Then C=CCOC(Cn1ccnc1)c1ccc(Cl)cc1Cl (stereo not drawn) ?
-- reply class 0

-- ask Then c1ccc2[nH]c(-c3cscn3)nc2c1 ?
-- reply class 0

More entries:
-- ask Outcome? CCCCOCCOCCOCc1cc2c(cc1CCC)OCO2
-- reply class 0

-- ask Then CCCCOC(=O)C(C)Oc1ccc(Oc2ccc(C(F)(F)F)cn2)cc1 (stereo not drawn) ?
-- reply class 0

-- ask Then CCCOC(=O)NCCCN(C)C ?
-- reply class 0

-- ask Then COC(=O)c1ccccc1C(=O)O ?
-- reply class 0

-- ask Then COC(=O)CSc1cc(N=c2sc(=O)n3n2CCCC3)c(F)cc1Cl ?
-- reply class 0

-- ask Then Oc1ccc(C(c2ccc(O)cc2)C(Cl)(Cl)Cl)cc1 ?
-- reply class 1

-- ask Then C#C[C@]1(O)CC[C@H]2[C@@H]3CCC4=CC(=O)CC[C@@H]4[C@H]3CC[C@@]21CC ?
-- reply class 0

-- ask Then CSC(=O)c1cccc2nnsc12 ?
-- reply class 0
